# Test system: A549
# test_summary: Anticancer activity against human A549 cells assessed as reduction in cell growth incubated for 48 hrs by MTT assay
# Type: functional, cell-based
# run_conditions: A549, 48 h
endpoint: pIC50
The read-out pIC50 is expressed as -log10 of concentration in moles per litre.

The examples below pair each entry with its known result.
>>> reported_value("c1ccc(-c2nn(-c3ccccc3)cc2-c2nc3cc4ccccc4cc3[nH]2)cc1")
4.71
>>> reported_value("Fc1ccc2[nH]c(-c3cn(-c4ccccc4)nc3-c3ccc(Cl)cc3)nc2c1")
5.34
>>> reported_value("COc1ccc(-c2nn(-c3ccccc3)cc2-c2nc3cc4ccccc4cc3[nH]2)cc1")
4.92
>>> reported_value("Fc1ccc(-c2nn(-c3ccccc3)cc2-c2nc3cc(Cl)ccc3[nH]2)cc1")
5.88

Query compound follows.
Note down pIC50 recorded for Fc1ccc(-c2nn(-c3ccccc3)cc2-c2nc3cc(F)ccc3[nH]2)cc1
5.95

###

# Test system: HeLa
# test_summary: Anticancer activity against human HeLa cells assessed as reduction in cell growth incubated for 48 hrs by MTT assay
# Assay type: functional, cell-based
endpoint: IC50 (µM)
Provide the reading as a plain figure in µM.

Use the examples below as a reference point.
>>> reported_value("Clc1ccc(-c2nn(-c3ccccc3)cc2-c2nc3cc(Br)ccc3[nH]2)cc1")
2.16
>>> reported_value("Cc1cc2nc(-c3cn(-c4ccccc4)nc3-c3ccccc3)[nH]c2cc1C")
41.5

State IC50 on HeLa. Entry: Fc1ccc(-c2nn(-c3ccccc3)cc2-c2nc3ccccc3[nH]2)cc1
2.33

Output reported IC50 of the compound Fc1ccc2[nH]c(-c3cn(-c4ccccc4)nc3-c3ccc(Cl)cc3)nc2c1 on HeLa.
2.77

Jot down IC50 (HeLa) of Clc1ccc(-c2nn(-c3ccccc3)cc2-c2nc3ccccc3[nH]2)cc1 .
1.65

Provide IC50, system HeLa, entry Clc1ccc(-c2nn(-c3ccccc3)cc2-c2nc3cc(Cl)c(Cl)cc3[nH]2)cc1
12.1

Report the value of IC50 obtained on HeLa for Cc1ccc2[nH]c(-c3cn(-c4ccccc4)nc3-c3ccccc3)nc2c1 .
6.56

Fill in IC50 for Cc1cc2nc(-c3cn(-c4ccccc4)nc3-c3ccc(Cl)cc3)[nH]c2cc1C tested with HeLa.
21.8

// fetch IC50 for Clc1ccc2[nH]c(-c3cn(-c4ccccc4)nc3-c3ccccc3)nc2c1 ; system: HeLa
3.48

// output IC50; input Cc1ccc2[nH]c(-c3cn(-c4ccccc4)nc3-c3ccc(Cl)cc3)nc2c1 ; system HeLa
5.36

State the measured IC50 (HeLa) of COc1ccc(-c2nn(-c3ccccc3)cc2-c2nc3cc(OC)ccc3[nH]2)cc1
1.14

Check HeLa data and give IC50 for FC(F)(F)c1ccc2[nH]c(-c3cn(-c4ccccc4)nc3-c3ccc(Cl)cc3)nc2c1 .
4.42

Given COc1ccc(-c2nn(-c3ccccc3)cc2-c2nc3cc(Cl)c(Cl)cc3[nH]2)cc1 , report its IC50 on HeLa.
6.6

Param request: IC50 | system HeLa | item c1ccc(-c2nn(-c3ccccc3)cc2-c2nc3cc4ccccc4cc3[nH]2)cc1
21.3

Provide IC50, recorded with HeLa, of FC(F)(F)c1ccc2[nH]c(-c3cn(-c4ccccc4)nc3-c3ccccc3)nc2c1
1.92
